Molecular target: AGTR1 (Homo sapiens)
Construct: host or cells: Pathunter CHO-K1 AGTR1 β-arrestin cell line (CHO-K1)
Sequence (P30556 whole entry): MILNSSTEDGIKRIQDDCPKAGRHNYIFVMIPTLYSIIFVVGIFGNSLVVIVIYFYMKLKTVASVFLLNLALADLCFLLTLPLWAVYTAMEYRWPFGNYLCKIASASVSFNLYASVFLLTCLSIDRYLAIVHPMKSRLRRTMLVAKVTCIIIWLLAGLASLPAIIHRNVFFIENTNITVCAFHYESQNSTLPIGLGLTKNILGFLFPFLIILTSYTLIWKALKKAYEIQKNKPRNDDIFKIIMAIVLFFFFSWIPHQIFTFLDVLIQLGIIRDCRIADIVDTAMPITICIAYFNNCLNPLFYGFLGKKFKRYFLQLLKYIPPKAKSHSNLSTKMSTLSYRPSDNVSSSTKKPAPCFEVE
Experiment: DiscoveRx IP1 accumulation assay (HTRF), agonist mode, Pathunter CHO-K1 AGTR1 β-arrestin cell line
Type: cell-based
Conditions: read-out: IP-1 EC50
REPORTED METRIC: EC50 (nM)
Give the number; nM is assumed, so skip it.

Example cases with answers are listed next.
[[record]]
molecule = "CCc1nc2c(C)cc(C)nc2n1Cc1ccc(-c2cc(-c3ccc(N(C)C)cc3)ccc2-c2nn[nH]n2)cc1"
experimental_system = "AGTR1 (Homo sapiens)"
unit_tag = "nM"
number = 21.7

[[record]]
molecule = "CCCCOC(=O)NS(=O)(=O)c1sc(-c2ccccc2C(F)(F)F)cc1-c1ccc(Cn2c(CC)nc3c(C)cc(C)nc32)cc1"
experimental_system = "AGTR1 (Homo sapiens)"
unit_tag = "nM"
number = 14.4

[[record]]
molecule = "CCc1nc2c(C)cc(C)nc2n1Cc1ccc(-c2cc(-c3ccc(C(F)(F)F)cc3)ccc2-c2nn[nH]n2)cc1"
experimental_system = "AGTR1 (Homo sapiens)"
unit_tag = "nM"
number = 83.9

[[record]]
molecule = "COc1ccnc(-c2ccc(-c3nn[nH]n3)c(-c3ccc(CN4C(=O)C5(CCCC5)N=C4C4CC4)cc3)c2)c1"
experimental_system = "AGTR1 (Homo sapiens)"
unit_tag = "nM"
number = 108

[[record]]
molecule = "CCc1nc2c(C)cc(C)nc2n1Cc1ccc(-c2cc(-c3cc(C)ccn3)ccc2-c2nn[nH]n2)cc1"
experimental_system = "AGTR1 (Homo sapiens)"
unit_tag = "nM"
number = 23.2

[[record]]
molecule = "CCc1nc2c(C)cc(C)nc2n1Cc1ccc(-c2cc(-c3cn(C)nn3)ccc2-c2nnn[nH]2)cc1"
experimental_system = "AGTR1 (Homo sapiens)"
unit_tag = "nM"
number = 52

[[record]]
molecule = "CCc1nc2c(C)cc(C)nc2n1Cc1ccc(-c2cc(-c3cc(C)c(F)cn3)ccc2-c2nn[nH]n2)cc1"
experimental_system = "AGTR1 (Homo sapiens)"
unit_tag = "nM"
number = 8.5

[[record]]
molecule = "CCCCC(=O)N(Cc1ccc(-c2cc(-c3ccccc3)ccc2-c2nn[nH]n2)cc1)[C@H](C(=O)O)C(C)C"
experimental_system = "AGTR1 (Homo sapiens)"
unit_tag = "nM"
number = 178

[[record]]
molecule = "CCCCC1=NC2(CCOC2)C(=O)N1Cc1ccc(-c2cc(-c3ccccc3F)ccc2-c2nnn[nH]2)cc1 (single isomer, unassigned)"
experimental_system = "AGTR1 (Homo sapiens)"
unit_tag = "nM"
number = 143

[[record]]
molecule = "CCc1nc2c(C)cc(C)nc2n1Cc1ccc(-c2cc(OC3CCCCC3)ccc2-c2nnn[nH]2)cc1"
experimental_system = "AGTR1 (Homo sapiens)"
unit_tag = "nM"
number = 110


// fetch AGTR1 (Homo sapiens) EC50 for "CC1=NC2(CCOCC2)C(=O)N1Cc1ccc(-c2cc(-c3ccccc3)ccc2-c2nn[nH]n2)cc1"
782

Now the same for "CCc1nc2c(C)cc(C)nc2n1Cc1ccc(-c2cc(-c3cccc(C(=O)N(C)C)c3)ccc2-c2nn[nH]n2)cc1"
211

What do you have for CCCC1=NC2(CCOC2)C(=O)N1Cc1ccc(-c2cc(-c3ccccc3O)ccc2-c2nnn[nH]2)cc1 (single isomer, unassigned) [Example 164] ?
231

Where these numbers come from: patent US12037324B2
